Just for reference, PubChem BioAssay (EPA / NIEHS) is where these values come from.

- assayDetails: CEETOX_H295R_11DCORT: CeeTox H295R High-throughput Steroidogenesis Assay for 11-Deoxycortisol (11DCORT) (AID 2283432)
- statedConditions: actives raise or lower the signal
Activity calls are given as the source filed them. How the source made its calls: active means hit-call score of the fitted dose curve at least 0.9, where 1 is the maximum; inactive means score below 0.9.
Possible outcomes: 1 (yes) (active), 0 (no) (inactive)

>  <compound>
CCCCCCCCN1CCCC1=O

>  <labelClass>
0 (no)

$$$$
>  <compound>
C=C1CC[C@H](O)C/C1=C/C=C1\CCC[C@]2(C)[C@@H]([C@H](C)/C=C/[C@H](C)C(C)C)CC[C@@H]12

>  <labelClass>
1 (yes)

$$$$
>  <compound>
COCCc1ccc(OCC(O)CNC(C)C)cc1 (stereo unspecified)

>  <labelClass>
1 (yes)

$$$$
>  <compound>
BrCc1cccc(Oc2ccccc2)c1

>  <labelClass>
0 (no)

$$$$
>  <compound>
CCOC(=O)[C@@H](C)Oc1ccc(Oc2nc3ccc(Cl)cc3o2)cc1

>  <labelClass>
0 (no)

$$$$
>  <compound>
CC1(C)C(=O)N(Cl)C(=O)N1Br

>  <labelClass>
0 (no)

$$$$
